assay.comment: solvent given as SMILES
measurement.parameters: in O
For each record, check the reported emission maximum: if it is below 500 nm write 1.0, else write 0.0.

These recorded examples may help you get a feel for the data.
[[record]]
compound = "Cc1ccccc1C1=C2C=CC(=[N+](C)C)C=[C]2[Ge]([CH3])([CH3])[c]2cc(N(C)C)ccc21"
cat = 0.0

[[record]]
compound = "C=CC1CN2CCC1CC2[C@H](O)c1ccnc2ccc(OC)cc12 (stereo not given in full)"
cat = 1.0

[[record]]
compound = "CC1(C)CC(=O)C2=C(C1)Oc1ccc3cc(O)ccc3c1C2c1ccccn1 (stereo not given)"
cat = 1.0


Pending compound:
Take the compound "COc1ccc(/N=N/c2c(O)c3ccccc3n(C)c2=O)c(S(=O)(=O)O)c1" and say whether its emission maximum is less than 500 nm.
0.0

###

assay.comment: solvent given as SMILES
measurement.parameters: in CCCCCC
# reported emission maximum; entries follow

As a guide, the following entries are already answered.
[[record]]
compound = "CC(C)(C)c1cc2ccc3cc(C(C)(C)C)cc4c3c2c(c1)c(=O)n1c4nc2c3cc(C(C)(C)C)cc4ccc5cc(C(C)(C)C)cc(c5c43)c21"
observable = "emission maximum"
experimental_value = "495 nm"

[[record]]
compound = "[C-]#[N+]c1ccc(-c2ccc(N)cc2)cc1"
observable = "emission maximum"
experimental_value = "353 nm"


Next, consider the following compound.
Given the entry "F[B-]1(F)n2c(c3cccc4cccc2c43)=Nc2ccc3ccccc3[n+]21" , report its measured emission maximum.
502 nm

###

Below, each entry is listed with its recorded emission maximum.
assay.comment: solvent given as SMILES
measurement.parameters: in CS(C)=O
Answer format: numeric, nm implied, no suffix.

[[record]]
compound = "CC1=[N+]2C(=c3c4c5ccccc5cc5cccc(c6cc(C)n(c36)[B-]2(F)F)c54)C=C1"
observable = "emission maximum"
units = "nm"
experimental_value = 639

[[record]]
compound = "O=c1oc2ccccc2cc1-c1ccc(-c2cc3ccccc3oc2=O)cc1"
observable = "emission maximum"
units = "nm"
experimental_value = 430

[[record]]
compound = "CCN1c2ccc(/C=N/Nc3ccccn3)cc2Sc2cc(/C=N/Nc3ccccn3)ccc21"
observable = "emission maximum"
units = "nm"
experimental_value = 507

[[record]]
compound = "O=c1oc2ccccc2c2c1c(=O)oc1ccc3ccc(O)cc3c12"
observable = "emission maximum"
units = "nm"
experimental_value = 506

[[record]]
compound = "COc1cc(OC)cc(C2=C3C(C)=C(I)C(C)=[N+]3[B-](F)(F)n3c(/C=C/c4c[nH]c5ccccc45)c(I)c(C)c32)c1"
observable = "emission maximum"
units = "nm"
experimental_value = 676


Return reported emission maximum; argument: NS(=O)(=O)c1ccc(N2N=C(c3ccc(O)cc3)CC2c2ccc([N+](=O)[O-])cc2)cc1 (centres undefined)
425

Endpoint output: emission maximum of "Cc1cc(C)c(B(c2ccc(-c3ccc(-c4nc5c6ccccc6c6ccccc6c5[nH]4)cc3)cc2)c2c(C)cc(C)cc2C)c(C)c1" . Value?
520

Entry under review: "C#CCn1c2ccccc2c2cc(/C=C/C3=[N+]4C(=C(c5ccc(I)cc5)c5c(C)c(Cl)c(/C=C/c6ccc7c(c6)c6ccccc6n7CC#C)n5[B-]4(F)F)C(C)=C3Cl)ccc21" . Reported emission maximum?
749

What value of emission maximum has been reported for the following compound? "CCOC(=O)/C(C#N)=C\c1ccc2c(c1)c1ccccc1n2-c1ccc(OC)cc1"
542

Which emission maximum value belongs to "[C-]#[N+]c1ccc(-c2ccc(N)cc2)cc1" ?
424

Given the entry "CCCCCCN(c1ccccc1)c1ccc(/C=C/c2cc(=O)oc3cc(C)ccc23)cc1" , report its measured emission maximum.
583
